Below, each entry is listed with its recorded IC50.
- Tested on: ULK kinase
- Assay summary: pATG13 levels of mutant HRas T24 cells after treatment with ULK inhibitors in combination with trametinib (ELISA)
- Assay type: cell-based, human
- Condition parameters: T24 urinary bladder cancer cells (mutant HRas), 250 nM trametinib, overnight, pS318-ATG13

Example compounds with recorded IC50:
>>> result("CCc1cc(N2CCN(C)CC2)c(F)cc1Nc1ncc(C(F)(F)F)c(NCCCN2CCOCCC2=O)n1")
"100 to 300 nM"
>>> result("CN1CCN(c2ccc(Nc3ncc(C(F)(F)F)c(NCCCN4CCCOC4=O)n3)c(C3CC3)c2)CC1")
"10 to 100 nM"
>>> result("CCc1cc(N2CCNCC2)ccc1Nc1ncc(C(F)(F)F)c(NCCCN2CCCOC2=O)n1")
"100 to 300 nM"

### Prompt Given CCc1cc(N2CCNCC2)ccc1Nc1ncc(C(F)(F)F)c(NCCCN2CCOCCC2=O)n1 , state its recorded IC50.
### Response 100 to 300 nM
